Assayed System: T1, recombinant biotinylated human PAR2 extracellular domain (residues 1-75), N-terminal AviTag, C-terminal Flag … (human, UniProt P55085 26-75, biotin on the AviTag (enzymatic biotinylation))
T1 construct: also called Bio-human-PAR2 ECD; human PAR2 ECD; not shown: N-terminal AviTag (Avidity LLC); C-terminal Flag and poly Histidine tags
T1 sequence (P55085 26-75): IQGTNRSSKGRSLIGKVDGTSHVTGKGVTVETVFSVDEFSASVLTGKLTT
Run Description: Biacore SPR 25 C, pH 7.4
Measured Attribute: koff
Hey, just the number and the unit after it is fine.

* PaB670076 Fab (Fab, V domains shown, Fab; also called ZZ1NHH-F09) VH: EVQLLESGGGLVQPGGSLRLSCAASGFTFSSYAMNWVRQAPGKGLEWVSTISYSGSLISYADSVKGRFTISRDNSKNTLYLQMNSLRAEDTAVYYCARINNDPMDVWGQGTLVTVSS VL: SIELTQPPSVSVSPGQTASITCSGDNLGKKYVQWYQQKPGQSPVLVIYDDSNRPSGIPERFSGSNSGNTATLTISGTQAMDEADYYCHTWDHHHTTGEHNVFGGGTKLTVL | 0.00121 s⁻¹
* PaB670103 Fab (Fab, V domains shown, Fab; also called ZZ1RCX-C09) VH: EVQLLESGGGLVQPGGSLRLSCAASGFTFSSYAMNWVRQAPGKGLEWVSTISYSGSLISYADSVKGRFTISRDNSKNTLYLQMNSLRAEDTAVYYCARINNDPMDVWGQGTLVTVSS VL: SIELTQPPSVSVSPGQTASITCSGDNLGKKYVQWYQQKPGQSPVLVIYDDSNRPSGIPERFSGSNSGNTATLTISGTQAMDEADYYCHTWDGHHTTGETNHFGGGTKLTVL | 0.000111 s⁻¹
* PaB670084 Fab (Fab, V domains shown, Fab; also called ZZ1PXA-A05) VH: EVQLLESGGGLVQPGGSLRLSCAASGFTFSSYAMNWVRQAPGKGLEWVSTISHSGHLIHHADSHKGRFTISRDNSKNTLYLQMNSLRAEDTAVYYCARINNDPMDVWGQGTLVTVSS VL: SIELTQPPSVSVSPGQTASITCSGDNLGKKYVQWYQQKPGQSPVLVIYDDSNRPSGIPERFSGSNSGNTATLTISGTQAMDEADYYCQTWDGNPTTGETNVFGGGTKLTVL | 0.00162 s⁻¹

Field: next binder
**Query** Look up koff for this binder: PaB670048 Fab (Fab, V domains shown, Fab; also called ZZ1KX4-E11) VH: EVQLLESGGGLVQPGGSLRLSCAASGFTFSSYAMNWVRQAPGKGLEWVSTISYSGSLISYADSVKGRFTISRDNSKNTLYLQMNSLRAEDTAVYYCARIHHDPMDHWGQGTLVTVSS VL: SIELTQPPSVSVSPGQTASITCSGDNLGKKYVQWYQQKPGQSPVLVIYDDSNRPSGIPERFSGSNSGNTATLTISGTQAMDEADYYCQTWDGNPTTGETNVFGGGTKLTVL
**Result** 0.000519 s⁻¹
